- protocol.summary: activity coefficient (dimensionless); of the first substance listed, at infinite dilution; xn = mol fraction of the nth substance listed
- assay.setup: 358.15 K; 101 kPa; Liquid; Chromatography; x1 = 0
recorded.metric: activity coefficient

Example entries and their recorded answers appear below.
[[record]]
compound = "CCC[N+](=O)[O-] [1-nitropropane] + CCCCCC[n+]1ccc2ccccc2c1.N#C[S-]"
recorded_metric = "activity coefficient"
test_result = 1.37

[[record]]
compound = "CO [methanol] + CCCCCC[n+]1ccc2ccccc2c1.N#C[S-]"
recorded_metric = "activity coefficient"
test_result = 0.376

[[record]]
compound = "CC(C)CC(C)(C)C [2,2,4-trimethylpentane] + CCCCCC[n+]1ccc2ccccc2c1.N#C[S-]"
recorded_metric = "activity coefficient"
test_result = 44.5

[[record]]
compound = "C1CCOC1 [tetrahydrofuran] + CCCCCC[n+]1ccc2ccccc2c1.N#C[S-]"
recorded_metric = "activity coefficient"
test_result = 1.48

[[record]]
compound = "CCCC(=O)CC [3-hexanone] + CCCCCC[n+]1ccc2ccccc2c1.N#C[S-]"
recorded_metric = "activity coefficient"
test_result = 2.9

[[record]]
compound = "C1CCCC1 [cyclopentane] + CCCCCC[n+]1ccc2ccccc2c1.N#C[S-]"
recorded_metric = "activity coefficient"
test_result = 10.2

[[record]]
compound = "CCC(C)(C)OC [2-methoxy-2-methylbutane] + CCCCCC[n+]1ccc2ccccc2c1.N#C[S-]"
recorded_metric = "activity coefficient"
test_result = 8.13


P = CCC(=O)CC [pentan-3-one] + CCCCCC[n+]1ccc2ccccc2c1.N#C[S-]
Q = C=CCCCCC [1-heptene] + CCCCCC[n+]1ccc2ccccc2c1.N#C[S-]
Problem: Kindly identify the item with the lower activity coefficient figure among these two: P and Q # respond with the chosen item's label
Result: P

---

- protocol.summary: activity coefficient (dimensionless); of the first substance listed, at infinite dilution; xn = mol fraction of the nth substance listed
- assay.setup: 328.15 K; 101 kPa; Liquid; Chromatography; x1 = 0
recorded.metric: activity coefficient

Below are worked cases with known answers.
[[record]]
compound = "CCO [ethanol] + CCCCCC[n+]1ccc2ccccc2c1.N#C[S-]"
test_result = 0.6

[[record]]
compound = "CC(C)=O [acetone] + CCCCCC[n+]1ccc2ccccc2c1.N#C[S-]"
test_result = 1.33

[[record]]
compound = "C1CCCCCCC1 [cyclooctane] + CCCCCC[n+]1ccc2ccccc2c1.N#C[S-]"
test_result = 16.5

[[record]]
compound = "CCCCCC [hexane] + CCCCCC[n+]1ccc2ccccc2c1.N#C[S-]"
test_result = 35.6

[[record]]
compound = "CCCCCCCCCC [decane] + CCCCCC[n+]1ccc2ccccc2c1.N#C[S-]"
test_result = 90.4

[[record]]
compound = "C1COCCO1 [1,4-dioxane] + CCCCCC[n+]1ccc2ccccc2c1.N#C[S-]"
test_result = 1.23


a = CC#N [acetonitrile] + CCCCCC[n+]1ccc2ccccc2c1.N#C[S-]
b = CCCCCCCCC [nonane] + CCCCCC[n+]1ccc2ccccc2c1.N#C[S-]
c = c1ccccc1 [benzene] + CCCCCC[n+]1ccc2ccccc2c1.N#C[S-]
d = C#CCCCCC [1-heptyne] + CCCCCC[n+]1ccc2ccccc2c1.N#C[S-]
Problem: Endpoint returns the given compounds ordered by ascending activity coefficient. Quick reminder: the answer is the labels in the order asked.
Result: a, c, d, b
(a: 1.02, c: 1.47, d: 4.93, b: 68.2)

I = c1ccsc1 [thiophene] + CCCCCC[n+]1ccc2ccccc2c1.N#C[S-]
II = CCCCCCCC [octane] + CCCCCC[n+]1ccc2ccccc2c1.N#C[S-]
Problem: From the recorded data, which exceeds the other in activity coefficient: I or II ? Output the label that corresponds to your choice.
Result: II
(II: 53.3, I: 0.921)

A = COC(C)(C)C [2-methoxy-2-methylpropane] + CCCCCC[n+]1ccc2ccccc2c1.N#C[S-]
B = CCCO [propan-1-ol] + CCCCCC[n+]1ccc2ccccc2c1.N#C[S-]
C = C1CCCC1 [cyclopentane] + CCCCCC[n+]1ccc2ccccc2c1.N#C[S-]
Problem: Thanks in advance: please rank these 3 entries by activity coefficient, highest to lowest. Thanks in advance for listing the labels in the requested order.
Result: C, A, B
(C: 12.3, A: 7.65, B: 0.693)

Data provenance: the NIST ThermoML archive (doi:10.1016/j.jct.2013.02.004)
